# Tested on: rat aortic rings
# MEASUREMENT_PROTOCOL: Contraction and endothelium dependent relaxation of rat aortic rings
# TEST_SETTINGS: mean (±SEM), rat aortic rings contracted with 1 μM phenylephrine; read-out: EC50 for EDR (endothelium dependent relaxation)
READOUT_NAME: EC50
Could you kindly put the unit after your number?

The measured EC50 associated with CC(=O)OCC[N+](C)(C)C reads 0.12 µM

The values you see were collected from patent US6562864B1.
